Tested on: HT-29 cells
Assay: HT-29 necroptosis cell viability assay (TNF-α/SMAC mimetic/zVAD-FMK, CellTiter-Glo)
Format: cell-based
Conditions: Homo sapiens, HT-29, HT-29 necroptosis cell viability, IC50 class symbols; read-out: Activity
IC50 overview

Cn1ncn(Cc2ccc(-n3ncn(Cc4c(F)cccc4F)c3=O)cc2)c1=O	1000 to 10000 nM
Cc1cnc(N2CC(C)(C#N)C2)cc1Oc1ccc(-n2ncn(Cc3c(F)cccc3F)c2=O)cc1Cl [Example 251]	< 100 nM
N#CC1CN(c2cc(Oc3ccc(-n4ncn(Cc5c(F)cccc5F)c4=O)cc3)ccn2)CC1O (stereo not drawn)	< 100 nM
CC1(C#N)CCN(c2cc(Oc3ccc(-n4ncn(Cc5c(F)cccc5F)c4=O)cc3F)c(Cl)cn2)C1 (stereo not drawn)	< 100 nM
CCNC1(C)CN(c2cc(Oc3ccc(-n4ncn(Cc5c(F)cccc5F)c4=O)cc3F)c(F)cn2)C1	100 to 1000 nM

(Q) Quick check: IC50 of `O=c1n(Cc2c(F)cccc2F)cnn1-c1ccc(Oc2ccnc(OCC3CC3)c2)cc1` ?
(A) < 100 nM

(Q) Let us now turn to `Nc1cccc(Cl)c1Oc1ccc(-n2ncn(Cc3c(F)cccc3F)c2=O)cc1`
(A) < 100 nM

(Q) Again, but for `CC1(C#N)CN(c2nccc(Oc3ccc(-n4ncn(Cc5c(F)cccc5F)c4=O)cc3F)c2Cl)C1`
(A) < 100 nM

(Q) // same read-out, input: `C[C@H]1[C@@H](O)CN1c1cc(Oc2ccc(-n3ncn(Cc4c(F)cccc4F)c3=O)cc2F)c(F)cn1`
(A) < 100 nM

(Q) Check `O=c1n(Cc2c(F)cccc2F)cnn1-c1ccc(Oc2ccnc(N3CCC4(COC4)C3)c2)cc1` too.
(A) < 100 nM

(Q) Then this molecule: `CC(C)(C)OC(=O)NC1CN(c2cc(Oc3ccc(-n4ncn(Cc5c(F)cccc5F)c4=O)cc3)ccn2)C1`
(A) < 100 nM

(Q) // same read-out, input: `C[C@H]1[C@@H](N(C)C)CN1c1cc(Oc2ccc(-n3ncn(Cc4c(F)cccc4F)c3=O)cc2F)c(Cl)cn1`
(A) < 100 nM

(Q) # repeat for `CN(c1cc(Oc2ccc(-n3ncn(Cc4c(F)cccc4F)c3=O)cc2)ccn1)C1CCC1`
(A) 100 to 1000 nM

(Q) Moving on to the next molecule: `Cn1c(Oc2ccc(-n3nc(Cl)n(Cc4ccccc4)c3=O)cc2)cccc1=O`
(A) 100 to 1000 nM

(Q) Then `Cc1cc(-n2ncn(Cc3c(F)cccc3F)c2=O)ccc1Oc1ccnc(N2CC3(CCOCC3)C2)c1` ?
(A) 1000 to 10000 nM

(Q) Field entry: `CC(C)(C)OC(=O)Nc1cc(Oc2ccc(-n3ncn(Cc4c(F)cccc4F)c3=O)cc2)ccn1`
(A) < 100 nM

(Q) Also `CCOC1CN(c2nccc(Oc3ccc(-n4ncn(Cc5c(F)cccc5F)c4=O)cc3F)c2F)C1` , if possible.
(A) < 100 nM

(Q) Do the same for `CC1(C#N)CN(c2nccc(Oc3ccc(-n4ncn(Cc5c(F)cccc5F)c4=O)cc3Cl)c2Cl)C1` please
(A) < 100 nM
